# System: TK-10
# PROTOCOL: NCI tumour cell line growth inhibition, 48 h
Calls of active or inactive are those of the source. Cut-off read from the data, not from the text of the source: active = GI50 up to about 1.1 µM and inactive = higher.
REPORTED_ENDPOINT: GI50

[[record]]
molecule = "CCc1c(Cc2cc(C)cc(C)c2)n2c(nc1=O)SCC2CBr (centres undefined)"
test_system = "TK-10"
observed_measurement = "34 µM (inactive)"

[[record]]
molecule = "CN(C)CC(C)(C)CN1c2ccccc2Sc2ccccc21"
test_system = "TK-10"
observed_measurement = "13.9 µM (inactive)"

[[record]]
molecule = "O=[N+]([O-])c1ccc(NC(=S)N/N=C(\\c2ccccc2)c2ccccn2)cc1"
test_system = "TK-10"
observed_measurement = "1.24 µM (inactive)"


Request: Need GI50 of C/C=C/[C@H]1O[C@@](O)([C@@H](C)[C@H](O)[C@H](C)[C@H]2OC(=O)/C(OC)=C/C(C)=C/[C@@H](C)[C@@H](O)[C@@H](CC)[C@@H](O)[C@H](C)C/C(C)=C/C=C/[C@@H]2OC)C[C@H](OC2CC(O)C(O)C(C)O2)[C@@H]1C (some centres undefined) , thanks.
Response: 9.48 µM (inactive)
